Data credit: patent US7534897B2

We begin with a simple list: items and their reported melting point.

Use the examples below as a reference point.
Qu. I am curious: what melting point value has been reported for CN(c1ccc2c(c1)c1c(n2CC(=O)O)CCCC1=O)S(=O)(=O)c1ccc(F)cc1 ?
Ans. 218 to 220 °C

Qu. Now consider Cc1cc2cc(N(C)S(=O)(=O)c3ccc(F)cc3)ccc2n1CC(=O)O .
Ans. 206 to 208 °C (dec.)

Qu. Ok, now Cc1c(C(C)C)c2cc(NS(=O)(=O)c3ccc(F)cc3)ccc2n1CC(=O)O
Ans. 165 to 171 °C

Qu. Query CCc1c(C)n(CC(=O)O)c2ccc(N(C)S(=O)(=O)c3ccc(F)cc3)cc12 next
Ans. 161 to 167 °C

Qu. Likewise for CN(C1CCc2c(c3ccccc3n2CC(=O)O)C1)S(=O)(=O)c1ccsc1 (stereo not drawn) ?
Ans. 175 to 180 °C

Proceed to the following item.
Qu. I would be grateful if you could share the reported melting point for O=C(O)Cn1c2ccccc2c2cc(N(Cc3ccccc3)S(=O)(=O)c3ccc(F)cc3)ccc21 .
Ans. 212 to 213 °C

----------
Target: CRTH2 (Homo sapiens)
Sequence (Q9Y5Y4 1-395): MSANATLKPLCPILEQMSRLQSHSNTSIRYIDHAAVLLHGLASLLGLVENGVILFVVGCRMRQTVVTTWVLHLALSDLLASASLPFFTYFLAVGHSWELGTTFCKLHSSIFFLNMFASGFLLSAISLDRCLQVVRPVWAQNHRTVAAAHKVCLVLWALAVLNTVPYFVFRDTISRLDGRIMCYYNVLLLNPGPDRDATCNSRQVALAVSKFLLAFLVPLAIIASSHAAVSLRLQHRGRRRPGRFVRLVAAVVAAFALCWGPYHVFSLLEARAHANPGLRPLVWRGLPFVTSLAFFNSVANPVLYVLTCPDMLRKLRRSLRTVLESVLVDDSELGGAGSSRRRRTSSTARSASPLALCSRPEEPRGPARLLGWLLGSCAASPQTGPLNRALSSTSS
MEASURE_NAME: IC50 (nM)

The cases that follow already have their IC50 on record.
Qu. Any idea what its IC50 is? The molecule is COc1ccc(S(=O)(=O)N(C)c2ccc3c(c2)c2c(n3CC(=O)O)CCCCC2)cc1
Ans. 8.3

Qu. Also need O=C(O)Cn1c2c(c3ccccc31)CC(NS(=O)(=O)c1ccc(F)cc1)CC2 (single isomer, unassigned; (+)) [(+)-Ib-16] , thanks.
Ans. 5.9

Qu. Subsequent entry: CC(C)N(CCc1cn(CC(=O)O)c2ccccc12)S(=O)(=O)c1ccc(F)cc1
Ans. 57

a. CN(c1ccc2c(c1)c1ccccc1n2CC(=O)O)S(=O)(=O)c1ccc(F)cc1
b. CN(C1Cc2c(n(CC(=O)O)c3ccccc23)C1)S(=O)(=O)c1ccc(F)cc1 (centres unmarked)
Qu. From the recorded data, which exceeds the other in IC50: a or b ? Your answer should be the label attached to the chosen record.
Ans. b
(b: 55 nM, a: 18 nM)

I. Cc1ccc(S(=O)(=O)NC2CCc3c(c4ccccc4n3CC(=O)O)C2)cc1 (single isomer, unassigned; (+)) [(+)-Ib-18]
II. Cc1c(C)n(CC(=O)O)c2ccc(N(C)S(=O)(=O)c3ccc(F)cc3)cc12
III. O=C(O)Cn1c2c(c3cc(NS(=O)(=O)c4ccc(F)cc4)ccc31)CCCCCC2
Qu. Rank items: key IC50, increasing. Answer format: list of labels, ordered as asked.
Ans. I, III, II
(I: 13 nM, III: 19 nM, II: 48 nM)
